# pKi measurements, system: histamine 3 receptor (H3R) (Homo sapiens, UniProt Q9Y5N1)
# Sequence (Q9Y5N1 whole entry): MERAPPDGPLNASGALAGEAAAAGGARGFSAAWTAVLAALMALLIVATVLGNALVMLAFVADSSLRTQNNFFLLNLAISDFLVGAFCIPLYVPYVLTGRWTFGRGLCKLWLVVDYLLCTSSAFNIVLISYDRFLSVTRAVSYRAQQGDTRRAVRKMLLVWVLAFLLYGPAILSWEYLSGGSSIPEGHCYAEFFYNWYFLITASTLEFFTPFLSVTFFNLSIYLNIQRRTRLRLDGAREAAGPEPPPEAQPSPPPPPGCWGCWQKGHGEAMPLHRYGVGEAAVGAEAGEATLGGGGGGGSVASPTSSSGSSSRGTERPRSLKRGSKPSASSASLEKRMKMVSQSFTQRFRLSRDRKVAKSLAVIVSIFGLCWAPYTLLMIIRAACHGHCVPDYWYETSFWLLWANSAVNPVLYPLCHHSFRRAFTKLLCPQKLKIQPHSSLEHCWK
One number for each entry, as −log10 of the molar value.

Quick one: give me pKi for each item below, same order please.
1. CC(C)N1CCN(C(=O)[C@H]2CC[C@H](NC(=O)N(C)c3cccc(F)c3)CC2)CC1
2. CC(C)N1CCN(C(=O)[C@H]2CC[C@H](NC(=O)c3ccc(Cl)cc3Cl)CC2)CC1

1. 7.42
2. 7.06
